assay: p53 small molecule agonists, cell-based qHTS assay with rat liver microsomes (AID 1963578); details: HCT-116 p53RE-bla, beta-lactamase ratio, 16 h; series mostly up to 66 µM; also: % is scaled to controls: 0 for no effect and ±100 for the full control effect
Inconclusive results are not listed. Active and inactive are the calls of the source. Calls follow the shape of the full dose curve.
quantity.kind: activation

Take a look at these entries with their results.
> print(dat)
                                   compound                       obs.value
1     CC(=O)C1CCCCC1=O (stereo unspecified)                        inactive
2  CCN1CCN(c2cc(-c3ccc(F)cc3)c3c(n2)CCCCCC3)CC1  -1.02% [at 13.6 µM] (inactive)
3                                     ClCCl                        inactive
4  C=C1CC[C@H](O)C/C1=C\C=C1/CCC[C@]2(C)[C@@H]([C@H](C)CCCC(C)C)CC[C@@H]12                        inactive
5  CCCCCCC(CCCCCCCCCCC(=O)OCC(COC(C)=O)OC(C)=O)OC(C)=O (stereo unspecified)                        inactive

Entry COc1ccc(C)cc1[N+](=O)[O-] , activation reported as inactive

---

target: 5-hydroxytryptamine receptor 2A (Homo sapiens) (UniProt P28223); experiment: 5-hydroxytryptamine receptor 2A (HTR2A) small molecule antagonists, cell-based qHTS assay (AID 1963586); conditions: HTR2A-CHO cells, DOI-induced calcium flux, fluorescence; series mostly up to 61.5 µM; also: % is scaled to controls: 0 for no effect and ±100 for the full control effect; nearly all actives have a fitted effect of over 45% in size
Sequence (P28223 whole entry, looked up): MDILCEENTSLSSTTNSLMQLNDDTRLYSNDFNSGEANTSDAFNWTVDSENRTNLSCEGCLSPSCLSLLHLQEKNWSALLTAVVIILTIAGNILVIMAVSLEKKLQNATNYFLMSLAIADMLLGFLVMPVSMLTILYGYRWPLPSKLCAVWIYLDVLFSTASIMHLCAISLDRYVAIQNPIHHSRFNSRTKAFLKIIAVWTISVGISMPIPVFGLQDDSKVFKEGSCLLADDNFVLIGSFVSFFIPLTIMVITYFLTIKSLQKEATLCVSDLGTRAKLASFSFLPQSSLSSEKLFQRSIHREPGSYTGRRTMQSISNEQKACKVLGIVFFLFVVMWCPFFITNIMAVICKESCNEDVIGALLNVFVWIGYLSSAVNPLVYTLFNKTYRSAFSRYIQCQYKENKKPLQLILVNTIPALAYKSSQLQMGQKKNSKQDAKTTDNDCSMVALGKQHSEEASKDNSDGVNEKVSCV
Results filed as inconclusive are left out. Active and inactive are the calls of the source. Calls follow the shape of the full dose curve.
quantity.kind: outcome

Reference set (6 entries):
> print(dat)
                                   molecule                              study.target  quantity.kind  obs.value
1             Cc1cccc(C)c1NC(=O)c1ccc(N)cc1  5-hydroxytryptamine receptor 2A (Homo sapiens) (UniProt P28223)        outcome   inactive
2  CC(CN(C)C)C(C)(O)Cc1ccc(Cl)cc1 (stereo not drawn)  5-hydroxytryptamine receptor 2A (Homo sapiens) (UniProt P28223)        outcome   inactive
3                 CC1(C)C(=O)N(CO)C(=O)N1CO  5-hydroxytryptamine receptor 2A (Homo sapiens) (UniProt P28223)        outcome   inactive
4         CCC(O)C(C)(C)C (stereo not drawn)  5-hydroxytryptamine receptor 2A (Homo sapiens) (UniProt P28223)        outcome   inactive
5         O=C(/C=C/c1ccccc1)OC/C=C/c1ccccc1  5-hydroxytryptamine receptor 2A (Homo sapiens) (UniProt P28223)        outcome   inactive
6                                  C1=CCCC1  5-hydroxytryptamine receptor 2A (Homo sapiens) (UniProt P28223)        outcome   inactive

Notebook: CC(C)NCC(O)COc1ccc(COCCOC(C)C)cc1 (stereo not drawn) , outcome read as inactive

Measured outcome of O=C1C=CCCC1 : inactive

For reference, reported outcome for O=c1[nH]c(=O)n([C@H]2O[C@H](CO)[C@@H](O)[C@@H]2O)cc1/C=C\Br stands at inactive

outcome reported for this molecule CCCCC(CC)COC(=O)COc1ccc(Cl)cc1Cl (stereo not drawn) : inactive

Query Cn1c(=O)[nH]c2ncn(C)c2c1=O yields outcome of inactive

Per the records, this molecule ( OCCN1C[C@H](O)[C@@H](O)[C@H](O)[C@H]1CO ) has outcome equal to inactive

In plain terms, CCN(CC)c1ccc2c(-c3ccc(S(=O)(=O)O)cc3S(=O)(=O)[O-])c3ccc(=[N+](CC)CC)cc-3oc2c1 has a documented outcome of inactive

---

test: p53 small molecule agonists, cell-based qHTS assay with human liver microsomes (AID 1963577); conditions: HCT-116 p53RE-bla with human liver microsomes, ratio, 16 h; series mostly up to 66 µM;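 also: p53 response element beta-lactamase reporter cells with liver microsomes plus NADPH; % is scaled to controls: 0 for no effect and ±100 for the full control effect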
Inconclusive results are not listed. Active and inactive are the calls of the source. Calls come from the whole dose curve.
quantity.kind: activation

Example entries and their recorded answers appear below.
> print(dat)
                                smiles.data  obs.value
1  Cc1ccc(CCn2c3c(c4cc(Cl)ccc42)CN(C)CC3)cn1   inactive
2                Cn1c(=O)[nH]c2ncn(C)c2c1=O   inactive
3                              CCCCCCCCCC=O   inactive
4                               N#CSCC(=O)O   inactive
5      CN1CCN(C2=Nc3cc(F)ccc3Cc3ccccc32)CC1   inactive
6                            BrC(Br)C(Br)Br   inactive

Reported activation ( CCOC(=O)c1ccc(NC(=O)CN2CCCCC2)cc1 ) = inactive

Kindly note the recorded activation for CC(=O)[C@H]1CC[C@H]2[C@@H]3C[C@H](C)C4=CC(=O)CC[C@]4(C)[C@H]3[C@@H](O)C[C@]12C , which is inactive

---

experiment: p53 small molecule agonists, cell-based qHTS assay with human liver microsomes: qHTS cell viability counter screen (AID 1963579); conditions: p53RE-bla HCT-116 viability, ATP luminescence, 16 h, HLM; series mostly up to 66 µM; also: % is scaled to controls: 0 for no effect and ±100 for the full control effect; nearly all actives have a fitted effect of over 45% in size
Results filed as inconclusive are left out. The source made the active and inactive calls. Calls follow the shape of the full dose curve.
quantity.kind: activity change, negative = cytotoxicity

> print(dat)
                                    compound                             quantity.kind  obs.value
 1       O=C(O)CNC(=O)c1ccc([N+](=O)[O-])cc1  activity change, negative = cytotoxicity   inactive
 2                              Cc1ccnc(N)c1  activity change, negative = cytotoxicity   inactive
 3  CCN1CCN(c2cc3c(cc2F)c(=O)c(C(=O)O)cn3C2CC2)CC1  activity change, negative = cytotoxicity   inactive
 4                            CC(C)(C)C(=O)O  activity change, negative = cytotoxicity   inactive
 5                           CCCCCCCCOC(C)=O  activity change, negative = cytotoxicity   inactive
 6  NS(=O)(=O)c1cc(C(=O)NN2C[C@H]3[C@H]4CCC(C4)[C@H]3C2)ccc1Cl  activity change, negative = cytotoxicity   inactive
 7  CCOc1nc2cccc(C(=O)O)c2n1Cc1ccc(-c2ccccc2-c2nn[nH]n2)cc1  activity change, negative = cytotoxicity   inactive
 8              CCCN(CCC)CCc1cccc2c1CC(=O)N2  activity change, negative = cytotoxicity   inactive
 9             Nc1ccc(S(=O)(=O)Nc2ccccc2)cc1  activity change, negative = cytotoxicity   inactive
10               CCN(CC)CCc1nc(-c2ccccc2)no1  activity change, negative = cytotoxicity   inactive

Switching to the query record.
Record summary for CN(C)CCCSc1ccccc1NC(=O)/C=C/c1ccccc1 : reported activity change, negative = cytotoxicity = inactive

---

molecular target: KiSS-1 receptor (Homo sapiens); assay: Human kisspeptin (KISS1R) small molecule agonists, calcium flux assay in KISS1R-HEK293 cells (AID 1920064); settings: KISS1R-HEK293, calcium flux fluorescence, agonist; series mostly up to 76.8 µM; also: % is scaled to controls: 0 for no effect and ±100 for the full control effect
Calls of active or inactive are those of the source. The call rests on the fitted dose curve; in most records, active means well fitted activation curve with a large enough effect in the repeat runs; inconclusive means weak or mixed curves; inactive means flat fitted curve, though single readings scatter.
quantity.kind: activation

Please review the entries below; each comes with its answer.
compound	activation
CC(C)=NNC(N)=S	inactive
CCOc1cc(N)c(Cl)cc1C(=O)NCC1CN(Cc2ccc(F)cc2)CCO1 (centres undefined)	inactive
NCC[C@H](O)C(=O)N[C@@H]1C[C@H](N)[C@@H](O[C@H]2O[C@H](CN)[C@@H](O)[C@H](O)[C@H]2O)[C@H](O)[C@H]1O[C@H]1O[C@H](CO)[C@@H](O)[C@H](N)[C@H]1O	0.177% [at 0.29 µM] (inactive)
CCCCOC(=O)C(C)CC (centres undefined)	inactive

--- query ---
O=c1[nH]c(=O)c2[nH]c(=O)[nH]c2[nH]1 has a reported activation of -0.365% [at 6.97 µM] (inactive)

---

Target: Muscarinic acetylcholine receptor M1 (Homo sapiens)
Test: Cholinergic receptor muscarinic 1 (CHRM1) small molecule antagonists, cell-based qHTS assay (AID 1963588); also: % is scaled to controls: 0 for no effect and ±100 for the full control effect; nearly all actives have a fitted effect of over 40% in size
Conditions: CHRM1-CHO antagonist mode, calcium flux fluorescence; series mostly up to 61.5 µM
From the text: National Center for Advancing Translational Sciences [NCATS] Division of Preclinical Innovation [DPI] U.S. Environmental Protection Agency [EPA] National Institutes of Environmental Health Sciences [NIEHS] National Toxicology Program [NTP] U.S. Food and Drug Administration [FDA] The CHRM1 is a muscarinic receptor. […] The CHRM1-CHO Calcium Flux Assay is a homogeneous fluorescence-based assay for detecting the intracellular calcium level using FDSS kinetic plate reader system. […]
Inconclusive results are not listed. Active and inactive are the calls of the source. Calls come from the whole dose curve.
quantity.kind: activity, negative = inhibition

Value of measured activity, negative = inhibition for the entry C[C@@H](O)[C@H](N)C(=O)O : -1.65% [at 12.6 µM] (inactive)

The reported activity, negative = inhibition of the compound FC(F)(F)C(F)(F)C(F)(F)C(F)(F)C(F)(F)C(F)(F)C(F)(F)C(F)(F)C(F)(F)C(F)(F)F was 8.35% [at 5.58 µM] (inactive)

So, CCOC(CN1CCN(CC(C)C(=O)c2ccccc2)CC1)c1ccccc1 (configuration not stated) ? Its activity, negative = inhibition was -8.62% [at 12.6 µM] (inactive)

activity, negative = inhibition in this record for Oc1cn2c(n1)Nc1ccc(Cl)c(Cl)c1C2 : -10.4% [at 12.6 µM] (inactive)

Lab note: measured activity, negative = inhibition of O=C1c2ccccc2C(=O)c2cc(Cl)ccc21 was -8.9% [at 5.58 µM] (inactive)

Query C[C@@H]1CC[C@@]2(OC1)O[C@H]1C[C@H]3[C@@H]4CC[C@H]5C[C@@H](O)CC[C@]5(C)[C@H]4CC(=O)[C@]3(C)[C@H]1[C@@H]2C yields activity, negative = inhibition of 4.81% [at 5.58 µM] (inactive)

Per the records, this compound ( CC1(C)CC(OC(=O)CCCCCCCCC(=O)OC2CC(C)(C)NC(C)(C)C2)CC(C)(C)N1 ) has activity, negative = inhibition equal to 30.1% [at 12.6 µM] (inactive)

get_value(item= NC(Cc1ccc(Cl)cc1)C(=O)O (configuration not stated) , readout=activity, negative = inhibition) returns 9.51% [at 0.232 µM] (inactive)

CCCCCCCCCCCCCCCCCCOCCO has a reported activity, negative = inhibition of -0.0015% [at 12.6 µM] (inactive)

Value of activity, negative = inhibition reported for the compound CCCCCCCCCCCCCCCCCl is -6.96% [at 12.6 µM] (inactive)

Reported activity, negative = inhibition for CCC(=O)CC(C)CC (configuration not stated) was -17.2% [at 0.232 µM] (inactive)

activity, negative = inhibition reading for C/C=C/C(=O)CC : 37.8% [at 12.6 µM] (inactive)
